- assayNotes: ATP-based viability of Huh7 replicon cells – cell-based, CellTiter-Glo luminescence, basal, 48 h, cytotoxicity control for HCV replication inhibitor project, primary screen (AID 1143);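 note: Huh7 hepatoma cells carrying a hepatitis C replication reporter with no stimulus; test concentration not given here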
- conditionInfo: higher = more signal, called active from +8 up or from −8 down
Classification scheme (z-score): low interval = under -3, middle interval = from -3 up to -0.08, high interval = -0.08 and over

- COC(=O)C(CC#Cc1ccc2c(c1)[C@]1(C(=O)N2)[C@H](C(=O)N2CCc3cc(OC)c(OC)cc3C2)[C@H]2C(=O)O[C@H](c3ccccc3)[C@H](c3ccccc3)N2[C@@H]1c1ccc(OCCO)cc1)C(=O)OC: middle interval
- CCCCC(O)C1C=CC2C(=O)N(Cc3ccccc3)C(=O)C2N1n1cnnc1 (stereo not given): low interval

*Q* Please classify: "CCCNC(=O)[C@@H]1c2ccccc2C(=O)N(CC23CC4CC(CC(C4)C2)C3)[C@H]1c1ccc(CO)cc1"
*A* low interval

*Q* Dear colleague, I would appreciate it if you could identify the bin for "COC(=O)C(CC#Cc1ccc2c(c1)[C@]1(C(=O)N2)[C@H](C(=O)N2CCc3cc(OC)c(OC)cc3C2)[C@H]2C(=O)O[C@H](c3ccccc3)[C@H](c3ccccc3)N2[C@@H]1c1ccc(O)cc1)C(=O)OC" and reply at your convenience.
*A* low interval

*Q* For COC(=O)c1ccc(OC)c(/C=C\CC(CCc2ccccc2)OC(C)=O)c1 (stereo not given) , which z-score bin applies?
*A* middle interval

*Q* Could you place "C[N+](C)(C)CCCC[C@@H]1NC(=O)[C@H]2C[C@@H](C(=O)NCCCCCCN)[C@@H](c3cccc(OCCO)c3)N2C1=O" in its proper category? Many thanks.
*A* high interval

*Q* Dear colleague, I would appreciate it if you could identify the bin for "COc1ccc([Si](C)(C)[C@@H]2[C@@H](CCO)O[C@]3(C(=O)N(Cc4ccccc4)c4ccc(N5C(=O)COc6ccccc65)cc43)[C@H]2C)cc1" and reply at your convenience.
*A* low interval

*Q* Looking at "Cc1ccc(S[C@]2(C(=O)O)CC(=O)N(Cc3ccccc3C(F)(F)F)[C@@H]2c2ccc(CO)cc2)cc1" , which class would you pick?
*A* high interval

*Q* Which of the defined bands does the recorded z-score of "CCCN1C(=O)[C@@]2(Cc3ccccc3)N=C(c3ccc(OCCCO)cc3)O[C@H]2c2ccccc21" sit within?
*A* low interval

*Q* GET /class?item= "NCCCCCCNC(=O)[C@H]1C[C@H]2C(=O)N3CCC[C@H]3C(=O)N2[C@H]1c1ccc(O)cc1"
*A* middle interval

*Q* Class label required: "C=CC[C@]1(C(=O)N2CCOCC2)N=C(c2ccc(OCCCO)cc2)O[C@H]1c1ccccc1CN=[N+]=[N-]"
*A* low interval

*Q* Quick check: band for "COCCCNC(=O)[C@@]1(C)c2ccccc2C(=O)N(c2ccc(C)cn2)[C@H]1c1ccc(CO)cc1"
*A* high interval

*Q* Field: class (z-score) — entry: "CC(C)(C)OC(=O)CC[C@]1(C(=O)O)COC(c2ccc(OCCCO)cc2)=N1"
*A* high interval

* * *

- assayNotes: probe aDKK1 binding to arrayed compounds – biochemical, biotinylated probe, 635/667 nm fluorescence, primary screen (AID 1099);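 note: score merges 667nm spot fluorescence with signal to noise across triplicate slides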
- conditionInfo: small-molecule microarray, higher = more signal
Categorized via composite z-score: low class (below -0.2), middle class (-0.2 to below 0.6), high class (0.6 or more)

As a guide, the following entries are already answered.
• Cc1cc(C)c(C(O)C2C=CC3C(=O)N(c4ccccc4)C(=O)C3N2Nc2ccc([N+](=O)[O-])cc2)c(C)c1 (centres undefined) = high class
• CN(C)C(=O)[C@@]1(CCC(=O)OC(C)(C)C)COC(c2ccc(OCCCO)cc2)=N1 = high class
• C=C(/C(=C/C[C@@H](OC(=O)c1ccncc1)c1ccccc1OCCO)c1cnc2ccccc2c1)C(C)C = middle class
• CC(C)C[C@@H]1NC(=O)[C@@]23C(=O)N[C@@H](Cc4ccccc4)C2[C@H](C)[C@@]2(C)O[C@H]2C3/C=C/C/C=C\CNC(=O)[C@@H]2CCCN2C1=O (some centres undefined) = low class
• COc1ccc([Si](C)(C)[C@H]2[C@H](CCO)O[C@@]3(C(=O)N(Cc4cccc(N5CCOC5=O)c4)c4ccccc43)[C@@H]2C)cc1 = middle class
• COc1ccccc1CN1C(=O)c2ccccc2[C@@H](C(=O)NCC(C)C)[C@@H]1c1ccc(CO)cc1 = middle class
• C=C(/C(=C/C[C@@H](OC(=O)c1ccncc1)c1cccc(OCCO)c1)c1cc(C(=O)OC)ccc1OC)C(C)C = middle class
• C=CCOC(=O)[C@@H]1[C@H]2C(=O)O[C@H](c3ccccc3)[C@H](c3ccccc3)N2[C@H](c2ccc(OCCOC(=O)[C@@H]3C[C@@H]4C(=O)N5CCC[C@H]5C(=O)N4[C@@H]3c3cccc(OCCO)c3)cc2)[C@@]12C(=O)Nc1ccc(I)cc12 = low class
• COCCOC(=O)N1C(=O)[C@@]2(c3cc(C#CCCO)ccc31)[C@H](c1ccc(OCCO)cc1)N1[C@H](c3ccccc3)[C@H](c3ccccc3)OC(=O)[C@H]1[C@@H]2C(=O)N1CCc2cc(OC)c(OC)cc2C1 = middle class
• COC(=O)[C@@]1(Cc2ccccc2)[C@H]2c3cc(C(=O)N4CCCC4)n(Cc4ccc(OC(F)(F)F)cc4)c3C[C@H]2CN1C(=O)c1ccccc1 = high class

*Q* Record Cc1ccccc1C(O)C1C=CC2C(=O)N(C)C(=O)C2N1Nc1ccc([N+](=O)[O-])cc1[N+](=O)[O-] (centres undefined) — which class?
*A* high class

*Q* Which band does "COc1ccc(C#Cc2ccc3c(c2)[C@]2(C(=O)N3)[C@H](c3ccc(OCCO)cc3)N3[C@H](c4ccccc4)[C@H](c4ccccc4)OC(=O)[C@H]3[C@@H]2C(=O)N2CCN(c3ncccn3)CC2)cc1" fall in?
*A* middle class

*Q* Quick check: band for O=C1NC(=O)C2C1C=CC(C(O)c1ccc3c(c1)OCO3)N2Nc1ccc(Cl)cc1Cl (centres undefined)
*A* high class

* * *

- assayNotes: compound effects on lung adenocarcinoma cell viability – A549, calcein-AM fluorescence, 48 h, basal, profiling panel (AID 1162); note: test concentration not given here
- conditionInfo: higher = more signal
endpointName: z-score
Enter the number alone.

* CC(C)NC(=O)[C@@H]1c2ccccc2C(=O)N(Cc2cc(C(F)(F)F)cc(C(F)(F)F)c2)[C@H]1c1ccc(CO)cc1 | -0.255
* [N-]=[N+]=NCc1ccccc1C[C@@]1(C(=O)NCCN2CCOCC2)N=C(c2ccc(OCCCO)cc2)O[C@@H]1c1ccccc1CN=[N+]=[N-] | -0.628

Proceeding to the next compound to report its z-score.
*Q* Requested read-out: z-score. Entry: "COc1ccc(C(=O)Nc2ccc(CN3C(=O)[C@@]4(O[C@@H](CC(=O)N5Cc6ccccc6C[C@H]5CO)[C@H]([Si](C)(C)c5ccc(OC)cc5)[C@H]4C)c4ccccc43)cc2)cc1"
*A* -0.0018

* * *

- testTarget: Streptavidin (Streptomyces avidinii) (UniProt P22629)
- Sequence (P22629 whole entry, looked up): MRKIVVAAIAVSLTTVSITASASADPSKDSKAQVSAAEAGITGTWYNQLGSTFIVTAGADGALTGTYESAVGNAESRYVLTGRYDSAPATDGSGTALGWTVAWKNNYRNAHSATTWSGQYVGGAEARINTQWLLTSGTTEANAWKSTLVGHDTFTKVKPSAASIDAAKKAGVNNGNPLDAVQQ
- assayNotes: compounds binding control protein streptavidin – biophysical, small-molecule microarray, 635/667 nm fluorescence, artefact control for SMM compound annotation, primary screen (AID 1147);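 note: signal reflects streptavidin binding to arrayed compounds as a control protein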
- conditionInfo: higher = more signal
Entries annotated with measured composite z-score
Just the number, please, no unit after it.

* CC(C)C[C@@H]1NC(=O)[C@@H]2C[C@H](C(=O)NCCCC[N+](C)(C)C)[C@H](c3cccc(OCCO)c3)N2C1=O | 0.154
* COc1ccccc1CN1C(=O)c2ccccc2[C@](Cc2ccccc2I)(C(=O)NCCN2CCOCC2)[C@@H]1c1ccc(CO)cc1 | 0.593
* CC(C)CCC[C@@H](C)[C@H]1CC[C@@]2(C)C3=C(CC[C@]12C)[C@@]1(C)CC[C@H](OC(=O)C(C)(C)C)C(C)(C)C1CC3 (some centres undefined) | 0.122

We now examine a further molecule.
*Q* # composite z-score lookup, item "O=C(N1CCOCC1)[C@@]1(CCS(=O)(=O)c2ccccc2)COC(c2ccc(OCCCO)cc2)=N1"
*A* -0.411

* * *

- testTarget: Left-right determination factor 2 (Homo sapiens) (UniProt O00292)
- Sequence (O00292 whole entry, looked up): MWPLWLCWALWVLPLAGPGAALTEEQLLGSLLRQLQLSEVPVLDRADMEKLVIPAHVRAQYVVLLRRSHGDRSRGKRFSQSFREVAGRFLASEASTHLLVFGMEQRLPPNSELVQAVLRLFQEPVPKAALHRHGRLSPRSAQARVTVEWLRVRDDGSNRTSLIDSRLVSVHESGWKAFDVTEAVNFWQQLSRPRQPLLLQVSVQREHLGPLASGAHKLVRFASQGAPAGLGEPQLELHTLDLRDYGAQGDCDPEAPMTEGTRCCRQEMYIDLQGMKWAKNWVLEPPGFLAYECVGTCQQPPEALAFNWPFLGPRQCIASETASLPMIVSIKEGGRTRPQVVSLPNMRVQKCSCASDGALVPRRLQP
- assayNotes: small molecules binding LEFTY2 protein – biochemical, small-molecule microarray, 635 nm fluorescence scan, primary screen (AID 1110)
- conditionInfo: higher = more signal
endpointName: composite z-score
Kindly provide the number alone.

- O=C(O)[C@]1(CCS(=O)(=O)c2ccccc2)N=C(c2ccc(OCCCO)cc2)O[C@@H]1c1ccccc1: -0.004
- C=CC[C@@]1(C(=O)NCC(O)CO)N=C(c2ccc(OCCCO)cc2)O[C@@H]1c1ccccc1 (some centres not stated): -0.834
- CC(=O)NCCCC[C@@H]1NC(=O)[C@@H]2C[C@H](C(=O)NCCCC[N+](C)(C)C)[C@H](c3cccc(OCCO)c3)N2C1=O: 0.0711
- [N-]=[N+]=NCc1ccccc1C[C@]1(C(=O)NCCN2CCOCC2)COC(c2ccc(OCCCO)cc2)=N1: -0.389
- CC(C)[Si](C#C[Si](C(C)C)(C(C)C)C(C)C)(O[C@H](C)c1cn(Cc2cccc(Cl)c2)nn1)C(C)C: 0.499

*Q* Entry "CC(=O)NCCCC[C@@H]1NC(=O)[C@H]2C[C@@H](C(=O)NCCCCCN)[C@@H](c3cccc(OCCO)c3)N2C1=O" : reported composite z-score = ?
*A* 0.0306
